- System: Es-2
- ASSAY NAME: Primary qHTS to identify gynecologic anti-cancer compounds using libraries of approved drugs and bioactive compounds (AID 1345084); further: nearly all actives have a fitted effect of over 55% in size
- TEST PARAMETERS: Gynecologic cancer cell panel viability, ATPlite luminescence, 48 h; series mostly up to 57.5 µM
Results filed as inconclusive are left out. The source made the active and inactive calls. The call rests on the fitted dose curve; in most records, active means well fitted cell-killing curve with a large enough effect; inconclusive means small, poorly fitted or top-dose-only effect, or effect the other way; inactive means flat fitted curve, though single readings scatter.
API: response.call in label 1 = active, label 0 = inactive

| COMPOUND | LABEL VALUE |
| --- | --- |
| Oc1ccc(O)cc1 | label 0 |
| COC(=O)CCc1ccc(OCC(O)CNC(C)C)cc1 (stereo unspecified) | label 0 |
| Cc1c(F)c(N2CCNC(C)C2)cc2c1c(=O)c(C(=O)O)cn2C1CC1 (stereo unspecified) | label 0 |
| C[C@H](CCC(=O)O)[C@H]1CC[C@H]2[C@@H]3C(=O)C[C@@H]4CC(=O)CC[C@]4(C)[C@H]3CC(=O)[C@]12C | label 0 |
| CC(=O)OCC(=O)[C@@]1(O)[C@H](C)C[C@H]2[C@@H]3CCC4=CC(=O)C=C[C@]4(C)[C@@]3(F)[C@@H](O)C[C@@]21C | label 0 |
| Cc1ccc(C(=O)C(C)CN2CCCCC2)cc1 (stereo unspecified) | label 0 |

Query: Record request — test call for Cc1nc2n(c(=O)c1CCN1CCC(c3noc4cc(F)ccc34)CC1)CCC[C@H]2O
Reply: label 0

Query: Which result was noted for this compound in the test: COc1cc2c(cc1OC)[C@@H]1CC(=O)[C@@H](CC(C)C)CN1CC2
Reply: label 0

* * *

- TESTED TARGET: Luciferin 4-monooxygenase (Photinus pyralis)
- ASSAY NAME: Biochemical firefly luciferase enzyme assay for NPC (AID 624030);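 further: purified P. pyralis luciferase at 10 nM with luciferin and ATP substrate; 0% = DMSO and -100% = full luciferase inhibition by PTC124 control; nearly all actives have a fitted effect of over 70% in size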
- TEST PARAMETERS: purified P. pyralis luciferase, luminescence, 5 min; series mostly up to 58.6 µM
Results filed as inconclusive are left out. Activity calls are given as the source filed them. Calls come from the whole dose curve; as a rule, active = well fitted inhibition curve with a large enough effect; inconclusive = small, poorly fitted or top-dose-only effect; inactive = flat fitted curve, though single readings scatter.
RECORDED METRIC: outcome

These recorded examples may help you get a feel for the data.
| COMPOUND | REPORTED RESULT |
| --- | --- |
| CN(C)CCOc1ccccc1Cc1ccccc1 | inactive |
| CCCCN1CCCC1C(=O)Nc1c(C)cc(C)cc1C (stereo not drawn) | inactive |
| C[N+]1(CCCCC[N+]2(C)CCCC2)CCCC1 | inactive |
| CCCCC1=NC2(CCCC2)C(=O)N1Cc1ccc(-c2ccccc2-c2nn[nH]n2)cc1 | inactive |
| O=C(OCCOCCO)c1ccccc1Nc1cccc(C(F)(F)F)c1 | inactive |

Field: outcome. Fill in for each record below.
1. CN1C(CCl)Nc2cc(Cl)c(S(N)(=O)=O)cc2S1(=O)=O (stereo not drawn)
2. CN1CCC[C@@H]1c1cccnc1
3. O=C1OCCN1/N=C/c1ccc([N+](=O)[O-])o1
4. COc1cc(C(=S)N2CCOCC2)cc(OC)c1OC
5. Cc1ccc(C(=O)C(C)CN2CCCCC2)cc1 (stereo not drawn)
6. CCCCCCCCCCCCCCCC[N+](C)(C)CC

Reply:
1. inactive
2. inactive
3. inactive
4. inactive
5. inactive
6. inactive

Hi! Can you tell me outcome for each of these compounds?
1. CN1CCC(=C2c3ccccc3Sc3ccccc32)CC1
2. O=c1ccc2ccccc2o1

Reply:
1. inactive
2. inactive

* * *

- Tested on: Hek293T
- ASSAY NAME: Primary qHTS to identify gynecologic anti-cancer compounds using libraries of approved drugs and bioactive compounds (AID 1345084); further: nearly all actives have a fitted effect of over 55% in size
- TEST PARAMETERS: Gynecologic cancer cell panel viability, ATPlite luminescence, 48 h, control line for the selectivity index; series mostly up to 57.5 µM
Records with an inconclusive call do not appear. Activity calls are given as the source filed them. The call rests on the fitted dose curve; in most records, active means well fitted cell-killing curve with a large enough effect; inconclusive means small, poorly fitted or top-dose-only effect, or effect the other way; inactive means flat fitted curve, though single readings scatter.
RECORDED METRIC: outcome

| MOLECULE | REPORTED RESULT |
| --- | --- |
| CC(O)C(=O)O (stereo not drawn) | inactive |
| Cc1onc(-c2c(Cl)cccc2Cl)c1C(=O)N[C@@H]1C(=O)N2[C@@H]1SC(C)(C)[C@@H]2C(=O)O | inactive |
| C[C@]12CCC(=O)C=C1[C@@H]1C[C@@H]1[C@H]1[C@@H]3[C@@H]4C[C@@H]4[C@@]4(CCC(=O)O4)[C@@]3(C)CC[C@@H]12 | inactive |
| CCCCOc1cc(C(=O)NCCN(CC)CC)c2ccccc2n1 | inactive |
| O=S1(=O)c2cccc3cccc(c23)N1CCCN1CCN(c2ccc(F)cc2)CC1 | inactive |

Quick request: outcome for each listed item, please.
1. O=C(CCN1CCC(c2ccccc2)C1)c1ccc2c(c1)OCCO2 (stereo not drawn)
2. CCN(CC)CCNC(=O)COc1ccc(Cl)cc1
3. O=C(CCCN1CCC(O)(c2ccc(Br)cc2)CC1)c1ccc(F)cc1

Reply:
["inactive", "inactive", "inactive"]

* * *

- ASSAY NAME: Cell Viability - BJ (AID 421);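 further: cells exposed to compound for 40 hours at 37 °C before readout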
- TEST PARAMETERS: BJ fibroblast viability, qHTS
Records with an inconclusive call do not appear. Calls of active or inactive are those of the source. Calls come from the whole dose curve. Numbered stars: 1 amine (or outer) side, 2 acyl side, 3 side chain; on linkers, the order of the positions; unused ones are H or OH. Bridge positions count the residues as written; N and C are the ends. Square brackets hold non-standard residues; d marks the D form. Peptide text beside a SMILES is read from it. I, II: the chains in the order shown. Actinocin(9to1) = Cc1c2oc3c(C)ccc(C(=O)[*:1])c3nc-2c(C(=O)[*:2])c(N)c1=O; NMeV = CN[C@H](C(=O)O)C(C)C; Sar = CNCC(=O)O
Just give me one of these, please: active, inactive

As a guide, the following entries are already answered.
| COMPOUND | LABEL VALUE |
| --- | --- |
| COc1cccc2c1C(=O)c1c(O)c3c(c(O)c1C2=O)C[C@@](O)(C(=O)CO)C[C@@H]3O[C@H]1C[C@H](N)[C@H](O)[C@H](C)O1 | active |
| COc1cccc2c1C(=O)c1c(O)c3c(c(O)c1C2=O)C[C@@](O)(C(C)=O)C[C@@H]3O[C@H]1C[C@H](N)[C@H](O)[C@H](C)O1 | active |
| O=C1OC(c2ccc(O)cc2)(c2ccc(O)cc2)c2ccccc21 | inactive |

Query: For this compound, state the assay outcome: Oc1ccc(O)cc1
Reply: inactive

Query: Which outcome was assigned to C[C@]12CC[C@@H]3c4ccc(O)cc4CC[C@H]3[C@@H]1CC[C@@H]2O in this test?
Reply: inactive

Query: Called result for Cc1c2oc3c(C)ccc(C(=O)N[C@@H]4C(=O)N[C@H](C(C)C)C(=O)N5CCC[C@H]5C(=O)N(C)CC(=O)N(C)[C@@H](C(C)C)C(=O)O[C@@H]4C)c3nc-2c(C(=O)N[C@@H]2C(=O)N[C@H](C(C)C)C(=O)N3CCC[C@H]3C(=O)N(C)CC(=O)N(C)[C@@H](C(C)C)C(=O)O[C@@H]2C)c(N)c1=O (I: T[dV]P[Sar][NMeV] / II: T[dV]P[Sar][NMeV]; ester I:1-I:C, II:1-II:C; linker I:N-II:N via Actinocin(9to1))
Reply: active

* * *

- ASSAY NAME: qHTS of pediatric cancer cell lines to identify multiple opportunities for drug repurposing: Primary screen for A673 cells (AID 1347092); further: nearly all actives have a fitted effect of over 45% in size
- TEST PARAMETERS: A673 Ewing sarcoma viability, CellTiter-Glo ATP luminescence, 48 h; series mostly up to 46 µM
Records with an inconclusive call do not appear. Activity calls are given as the source filed them. Calls come from the whole dose curve; as a rule, active = well fitted cell-killing curve with a large enough effect; inconclusive = small, poorly fitted or top-dose-only effect; inactive = no such curve, though single readings can be large or run the other way.
Reply using exactly one outcome from Yes for active, No for inactive

// below: answered compounds
| COMPOUND | LABEL VALUE |
| --- | --- |
| NC(CS)C(=O)O (stereo unspecified) | No |
| CCCCCCCCCCCCCCCC[N+](C)(C)CC | Yes |
| CC(=O)OCC(=O)[C@@]12N=C(C)O[C@@H]1C[C@H]1[C@@H]3CCC4=CC(=O)C=C[C@]4(C)[C@H]3[C@@H](O)C[C@@]12C | No |

Query: Which outcome was entered for the compound CC[N+](CC)(CCNC(=O)C(=O)NCC[N+](CC)(CC)Cc1ccccc1Cl)Cc1ccccc1Cl in this test?
Reply: No

Query: Per the records of this test, what outcome belongs to C[C@@H]1C[C@H]2[C@@H]3CCC4=CC(=O)C=C[C@]4(C)[C@@]3(F)[C@@H](O)C[C@]2(C)[C@H]1C(=O)CO ?
Reply: No

Query: Called result for CCOC(=O)/C=C(C)/C=C/C=C(C)/C=C/c1c(C)cc(OC)c(C)c1C
Reply: No

Query: Each compound tested received a call. Report the one for CN1CCN(C(c2ccccc2)c2ccccc2)CC1 .
Reply: No

Query: Record lookup: outcome of this test for Cc1ccc(C(=O)C(C)CN2CCCCC2)cc1 (stereo unspecified) ?
Reply: No

Query: Name the outcome recorded for COc1cccc2c1C(=O)c1c(O)c3c(c(O)c1C2=O)C[C@@](O)(C(C)=O)C[C@@H]3O[C@H]1C[C@H](N)[C@H](O)[C@H](C)O1 in the assay.
Reply: Yes
